assay: NCI Yeast Anticancer Drug Screen. Data for the bub3 strain (AID 167); details: S. cerevisiae bub3 mutant strain, at 50.0 µM, active compounds read high
This is part of a sample that, as a whole, favours compounds with a hit. Of some 79,000 tested, about 15% had one in any assay. Calls of active or inactive are those of the source. No stated cut-off is given here; in the data, active means growth inhibition above about 70%; inactive means the rest.
As shown below, each of these compounds has a reported growth inhibition value.

Using the record for CC12CCC(=O)C3C1CCCC32 , report its growth inhibition. -2.15% (inactive)

Further, for NCCCOCCO ? 16.4% (inactive)

Further, for CCCCCCC(/C=C/c1ccc(Cl)c(Cl)c1)=N\Nc1ccccc1 ? -4.3% (inactive)

Further, for CN(C)c1ccc(/C=C/c2ccnc3ccc(Br)cc23)cc1 ? 8.1% (inactive)

Further, for OC(C#Cc1ccccc1)(C#Cc1ccccc1)/C=C/c1ccccc1 ? -9.15% (inactive)

Further, for CCOC(=O)c1cc(OC(C)=O)c2ccccc2c1 ? 61.5% (inactive)

Further, for COc1ccccc1NC(=O)/C(Cc1nc2ccc([N+](=O)[O-])cc2[nH]c1=O)=N\NC(=O)C[N+](C)(C)C ? 25.4% (inactive)

Further, for O=C1/C(=C/c2ccccc2)CN(C(=O)CCN2CCOCC2)C/C1=C\c1ccccc1 ? 66.8% (inactive)

---
Using the record for COc1cc(OC)c(N=Nc2c(N)nc(N)[nH]c2=O)cc1Cl , report its growth inhibition. 8.3% (inactive)

Further, for COc1ccc(N=Cc2c(O)ccc3ccccc23)cc1 ? 32% (inactive)

Further, for COC1OC2COc3ccccc3OC2C2C1N2C(N)=S (stereo not given) ? 19.4% (inactive)

Further, for Cc1ccc(C(=O)N/N=C/c2ccccc2Cl)cc1 ? 34.9% (inactive)

Further, for O=[N+]([O-])c1ccc(OC(=S)N2CCOCC2)cc1 ? -10.2% (inactive)

====

assay: NCI Yeast Anticancer Drug Screen. Data for the bub3 strain (AID 167); details: S. cerevisiae bub3 mutant strain, at 50.0 µM
Compounds without any hit were thinned out: in the full panel of roughly 79,000, 15% have a hit. Calls of active or inactive are those of the source. Rule as the data show it: active = growth inhibition above about 70%; inactive = the rest.
Please reply with one of these outcomes: YES for active, NO for inactive

Assay outcome for COc1ccccc1C(OC)c1ccccc1C(=O)O (configuration not stated) : what was it? NO

Further, for CCOC(=O)C1(C(F)(F)F)N=C(CC)OC(N2CCOCC2)=N1 (configuration not stated) ? NO

Further, for CC(=O)Nc1ccc(/C=c2\sc3nnc(CCC(=O)Nc4ccccc4Cl)n3c2=O)cc1 ? NO

Further, for CCC(C)SC1=NC(N)=NC2=NC=NC21 (configuration not stated) ? NO

Further, for N#CCCN(CCC#N)Cc1ccc2c(O)c(CN(CCC#N)CCC#N)ccc2c1O ? NO

---
Assay outcome for O=P(O)(c1cc(Cl)cc(Cl)c1)c1cc(Cl)cc(Cl)c1 : what was it? NO

Further, for C=CCCCCCCCCCO ? NO

Further, for Clc1ccc(Cl)nc1 ? NO

Further, for c1ccc2c(c1)cnc1c3ccccc3ccc21 ? NO

Further, for C=Cc1nnnn1C ? NO

====

Test: NCI Yeast Anticancer Drug Screen. Data for the mlh1 rad18 strain (AID 175)
Details: S. cerevisiae mlh1 rad18 strain growth inhibition; at 50.0 µM; active compounds read high
Protocol: Growth inhibition of yeast strains with defined genetic alterations is measured as a screen for potential anti-cancer activity. Selected strains with alterations in DNA damage repair or cell cycle control were exposed to compounds and growth inhibition was measured relative to vehicle treated controls. The strain used in this assay is mlh1 rad18
About 79,000 compounds went through this panel and 15% of them were active in at least one assay; those are over-represented in the sample as a whole.
As shown below, each of these compounds has a reported growth inhibition value.
Give the value in % but do not write % after it.

The following compounds have reported results that may help.
Using the record for Cc1ccc(S(=O)(=O)c2ccccc2C)s1 , report its growth inhibition. -12.1

Further, for O=C(O)CCCC#CCCCC(=O)O ? -13.7

Further, for Cc1ccc(N=Nc2ccc(C)cc2NC(=O)CCl)cc1 ? -15.2

Further, for CCC(=O)Oc1c(C(C)C)cccc1C(C)(C)C ? -14.8

Further, for O=C1O/C(=C(\Br)c2ccc([N+](=O)[O-])cc2)c2ccccc21 ? 1.05

---
Using the record for CCOC(=O)c1ccc(OC(=O)Nc2ccccc2)cc1 , report its growth inhibition. -28.1

Further, for O=C1CC(=O)N2C=CC=CC2N1 (stereo unspecified) ? -13.5

Further, for CN(C)c1ccc(-c2cccc[n+]2C)cc1 ? 25.7

====

test: NCI Yeast Anticancer Drug Screen. Data for the bub3 strain (AID 167); details: S. cerevisiae bub3 mutant strain, at 50.0 µM, active compounds read high
This is part of a sample that, as a whole, favours compounds with a hit. Of some 79,000 tested, about 15% had one in any assay.
As shown below, each of these molecules has a reported growth inhibition value.
Give the value in % but do not write % after it.

The following molecules have reported results that may help.
Using the record for N=C(N)c1cc(Cl)c(OCc2ccccc2)c(Cl)c1 , report its growth inhibition. 3.85

Further, for O=C(Nc1ccc(O)cc1)c1ccccc1O ? 15.4

Further, for O=C(O)CCC(=O)c1ccc[nH]1 ? 15.1

Further, for C=CCCCCCCCCC(=O)NCc1ccncc1 ? 41.7

Further, for O=C(NNC(=O)c1ccc2ccccc2c1)c1ccc(F)cc1 ? 10.2

Further, for COC(=O)c1cc(C)n(C)c(=O)c1C#N ? 13.9

As a next step, examine the molecule that follows.
Using the record for Cc1ccc(/C=N/NC(=O)c2ccccc2NC(=O)c2ccccc2)cc1 , report its growth inhibition. 70.8

====

assay: NCI Yeast Anticancer Drug Screen. Data for the mlh1 rad18 strain (AID 175); conditions: S. cerevisiae mlh1 rad18 strain growth inhibition; at 50.0 µM; active compounds read high
The panel holds about 79,000 compounds, 15% with a hit somewhere; the sample as a whole holds those more often. Active and inactive are the calls of the source. Cut-off read from the data, not from the text of the source: active = growth inhibition above about 70%; inactive = the rest.
As shown below, each of these compounds has a reported growth inhibition value.

The following compounds have reported results that may help.
Using the record for C=CC1=C(C)C2=NC1=CC1=NC(=CC3=C(C)C4=C(O)C(C(=O)OC)C(=C5NC(=C2)C(C)C5CCC(=O)OC/C=C(\C)CCCC(C)CCCC(C)CCCC(C)C)C4=N3)C(CC)=C1C (stereo unspecified) , report its growth inhibition. -20.9% (inactive)

Further, for CCn1cc(C(=O)O)c(=O)c2ccc(-c3cn[nH]c3C)nc21 ? 29.9% (inactive)

---
Using the record for CSc1ncnc2[nH]ncc12 , report its growth inhibition. -62.1% (inactive)

Further, for CC(=O)OC(C)C1CCCC1OC(C)=O (stereo unspecified) ? -22.5% (inactive)

Further, for CCCCCCCCCCCCCCCCCCNC(=O)N1CCC(C)CC1 ? -24.6% (inactive)

Further, for CC(=O)N1CCc2ccccc2C1C1NCCc2ccccc21 (stereo unspecified) ? 5.9% (inactive)

Further, for C=CC(C)C1C(C)C(Cl)CC(Cl)C1OC(=O)c1ccccc1 (stereo unspecified) ? -11.3% (inactive)

Further, for C/C(=N\NC(=S)N1CCN(c2ccccn2)CC1)c1cccc2cccnc12 ? -0.25% (inactive)

Further, for CSC(=S)n1nc(-c2cccs2)c(N=Nc2ccc([N+](=O)[O-])cc2)c1C(F)(F)F ? 0.85% (inactive)

Further, for Cc1nc2nn[nH]n2c(=O)c1CCO ? -51.6% (inactive)

Further, for C[Si](C)(C)CSCCO ? -1.6% (inactive)

====

assay: NCI Yeast Anticancer Drug Screen. Data for the mec2-1 strain (AID 157); conditions: S. cerevisiae mec2-1 strain, at 50.0 µM, active compounds read high
The panel holds about 79,000 compounds, 15% with a hit somewhere; the sample as a whole holds those more often.
As shown below, each of these compounds has a reported growth inhibition value.
Give the value in % but do not write % after it.

The following compounds have reported results that may help.
Using the record for COC(=O)C(Cc1nc2ccccc2[nH]c1=O)/C(=N\NC(C)(C)C)C(=O)Nc1c(C)cc(Br)cc1C (centres undefined) , report its growth inhibition. -4.55

Further, for O=C(c1ccccc1)C(c1ccccc1)C1(O)C(=O)Nc2ccc(Br)cc21 (centres undefined) ? 7.35

Further, for CC(=O)Nc1cc(Cl)ccc1SC1OC(COC(C)=O)C(OC(C)=O)C(OC(C)=O)C1OC(C)=O (centres undefined) ? -7.15

Further, for COc1cc2c(cc1OC)C(=O)/C(=C/c1ccc(O)cc1)CC2 ? -8.9

Further, for CCOC(=O)C(Br)CN1C(=O)c2ccccc2C1=O (centres undefined) ? -7.1

---
Using the record for COC(=O)[C@@]1(C(C)CC(=O)O)CCCCC1=O (some centres undefined) , report its growth inhibition. -16.4

Further, for O=Cc1c(CO)cc(O)c(O)c1O ? -0.1

Further, for c1cc2[nH]snc2c2cncc12 ? 9.2

Further, for O=C1Cc2c([nH]c3ccc(Cl)cc23)-c2ccccc2N1 ? 2.1

Further, for C[C@]12CC[C@@H]3c4ccc(O)cc4CC[C@H]3[C@@H]1CC[C@@H]2OC(=O)CCc1ccccc1 ? 9.8

Further, for Cl[Si]1(Cl)Oc2ccccc2O[Si](Cl)(Cl)Oc2ccccc2O1 ? 10.6

Further, for O=C(Oc1ccccc1OC(=O)c1ccc(Cl)cc1)c1ccc(Cl)cc1 ? 6.4

Further, for COc1ccc(NC(=O)CC(O)c2cccc(N)c2)cc1 (centres undefined) ? -26.4

Further, for CC1C(=O)N2C(=O)C(C)C(C)C(=O)N2C(=O)C1C (centres undefined) ? -6.25

Further, for Cc1cccc(N2CCN(S(C)(=O)=O)CC2)c1 ? 6.85

Further, for CC1=CC(C)(C)NC(=S)N1C1CCCCC1 ? -6.85

Further, for CC(=O)Nc1ccc(C2SCc3nc4ccccc4n32)cc1 (centres undefined) ? -11.1

Further, for O=[N+]([O-])C(/C=C(\Cl)[N+](=O)[O-])=C1Nc2ccccc2N1 ? 45.1

Where these numbers come from: PubChem BioAssay (NCI)
